Test system: 843782-103-R-J1-PDC complex spheroid viability
PROCEDURE_TEXT: Anticancer human tumor 843782-103-R-J1-PDC patient-derived lung adenocarcinoma cell line growth inhibition [RAS]
TEST_CONDITIONS: second compound 0.3 µM; first compound 0.01 µM; stronger effect = lower value
Text: RAS pathway inhibitors in Combinations in Complex Spheroids A high-throughput screen of multi-cell type tumor spheroids was designed to identify active combinations of RAS pathway inhibitors and targeted small molecules. Complex spheroids include a stromal component modeled by human endothelial cells (HUVEC) and fibroblasts modeled by human mesenchymal stem cells (MSCs). […] Compounds. […] If the clinical Cmax for an agent had not been determined, the highest concentration tested was 10 microM. […]
Each entry below lists one item and its recorded viability, T/C value.
Reply numerically in %, unit not repeated.

Here are 3 molecules together with their reported answers.
molecule="Nc1ccn(C2OC(CO)C(O)C2(F)F)c(=O)n1 (stereo not drawn) + CCn1c(-c2cc(N3CCN(C)CC3)cnc2C(C)OC)c2c3cc(ccc31)-c1csc(n1)CC(NC(=O)C1CC1C)C(=O)N1CCCC(N1)C(=O)OCC(C)(C)C2" unit_info=% measurement=16.6
molecule="CCN1CCN(Cc2ccc(Nc3ncc(F)c(-c4cc(F)c5nc(C)n(C(C)C)c5c4)n3)nc2)CC1 + CCn1c(-c2cc(N3CCN(C)CC3)cnc2C(C)OC)c2c3cc(ccc31)-c1csc(n1)CC(NC(=O)C1CC1C)C(=O)N1CCCC(N1)C(=O)OCC(C)(C)C2" unit_info=% measurement=12.4
molecule="C=CC(=O)N1CCN(c2nc(OCC3CCCN3C)nc3c(F)c(-c4nc(N)cc(C)c4C(F)(F)F)c(Cl)cc23)C(C)C1 (stereo not drawn) + CCn1c(-c2cccnc2C(C)OC)c2c3cc(ccc31)N1CCOC(CC(NC(=O)C(C(C)C)N(C)C(=O)C3(F)CCN(C(=O)C#CC(C)(C)N(C)C)CC3)C(=O)N3CCCC(N3)C(=O)OCC(C)(C)C2)C1" unit_info=% measurement=69.2

Q. // fetch 843782-103-R-J1-PDC complex spheroid viability viability, T/C for CCN1CCN(Cc2ccc(Nc3ncc(F)c(-c4cc(F)c5nc(C)n(C(C)C)c5c4)n3)nc2)CC1 + CCn1c(-c2cccnc2C(C)OC)c2c3cc(ccc31)N1CCOC(CC(NC(=O)C(C(C)C)N(C)C(=O)C3(F)CCN(C(=O)C#CC(C)(C)N(C)C)CC3)C(=O)N3CCCC(N3)C(=O)OCC(C)(C)C2)C1
A. 66.1

Q. // fetch 843782-103-R-J1-PDC complex spheroid viability viability, T/C for O=C(c1ccc(F)c(F)c1Nc1ccc(I)cc1F)N1CC(O)([C@@H]2CCCCN2)C1 + CCn1c(-c2cccnc2C(C)OC)c2c3cc(ccc31)N1CCOC(CC(NC(=O)C(C(C)C)N(C)C(=O)C3(F)CCN(C(=O)C#CC(C)(C)N(C)C)CC3)C(=O)N3CCCC(N3)C(=O)OCC(C)(C)C2)C1
A. 59.7

Q. // fetch 843782-103-R-J1-PDC complex spheroid viability viability, T/C for O=C(c1ccc(F)c(F)c1Nc1ccc(I)cc1F)N1CC(O)([C@@H]2CCCCN2)C1 + CCn1c(-c2cc(N3CCN(C)CC3)cnc2C(C)OC)c2c3cc(ccc31)-c1csc(n1)CC(NC(=O)C1CC1C)C(=O)N1CCCC(N1)C(=O)OCC(C)(C)C2
A. 8.56

Q. // fetch 843782-103-R-J1-PDC complex spheroid viability viability, T/C for C=CC(=O)N1CCN(c2nc(OCC3CCCN3C)nc3c(F)c(-c4nc(N)cc(C)c4C(F)(F)F)c(Cl)cc23)C(C)C1 (stereo not drawn) + CCn1c(-c2cc(N3CCN(C)CC3)cnc2C(C)OC)c2c3cc(ccc31)-c1csc(n1)CC(NC(=O)C1CC1C)C(=O)N1CCCC(N1)C(=O)OCC(C)(C)C2
A. 14.5

Q. // fetch 843782-103-R-J1-PDC complex spheroid viability viability, T/C for C=CC(=O)Nc1cc(Nc2nccc(-c3cn(C)c4ccccc34)n2)c(OC)cc1N(C)CCN(C)C + CCn1c(-c2cc(N3CCN(C)CC3)cnc2C(C)OC)c2c3cc(ccc31)-c1csc(n1)CC(NC(=O)C1CC1C)C(=O)N1CCCC(N1)C(=O)OCC(C)(C)C2
A. 13.2

* * *

System: 843782-103-R-J1-PDC complex spheroid viability
PROCEDURE_TEXT: Anticancer human tumor 843782-103-R-J1-PDC cell line growth inhibition [RAS];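 also: viability read after seven days of compound exposure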
TEST_CONDITIONS: second compound 0.00949 µM; first compound 0.1 µM; stronger effect = lower value
Each entry below lists one item and its recorded viability, T/C value.
Reply numerically in %, unit not repeated.

Here are 2 compounds together with their reported answers.
compound="NC1c2ccccc2OC12CCN(c1cnc3c(N4CCCc5ncccc54)n[nH]c3n1)CC2 (stereo not drawn) + CCn1c(-c2cccnc2C(C)OC)c2c3cc(ccc31)N1CCOC(CC(NC(=O)C(C(C)C)N(C)C(=O)C3(F)CCN(C(=O)C#CC(C)(C)N(C)C)CC3)C(=O)N3CCCC(N3)C(=O)OCC(C)(C)C2)C1" measurement=25.4
compound="CCC(CC)c1cc(NC2CCC(N)C2)n2nccc2n1 (stereo not drawn) + CCn1c(-c2cc(N3CCN(C)CC3)cnc2C(C)OC)c2c3cc(ccc31)-c1csc(n1)CC(NC(=O)C1CC1C)C(=O)N1CCCC(N1)C(=O)OCC(C)(C)C2" measurement=34.3

Consider now this further compound.
Q. Name the recorded viability, T/C for Nc1ccn(C2OC(CO)C(O)C2(F)F)c(=O)n1 (stereo not drawn) + CCn1c(-c2cc(N3CCN(C)CC3)cnc2C(C)OC)c2c3cc(ccc31)-c1csc(n1)CC(NC(=O)C1CC1C)C(=O)N1CCCC(N1)C(=O)OCC(C)(C)C2 .
A. 5.56

* * *

Tested on: 843782-103-R-J1-PDC complex spheroid viability
PROCEDURE_TEXT: Anticancer human tumor 843782-103-R-J1-PDC cell line growth inhibition [RAS];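 also: viability read after seven days of compound exposure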
TEST_CONDITIONS: second compound 0.316 µM; first compound 0.1 µM; stronger effect = lower value
Checkbox rule: viability, T/C lower than 80% = met; viability, T/C not lower than 80% = not met.

compound="NC1c2ccccc2OC12CCN(c1cnc3c(N4CCCc5ncccc54)n[nH]c3n1)CC2 (stereo not given) + C#Cc1c(F)ccc2cc(O)cc(-c3ncc4c(N5CC6CCC(C5)N6)nc(OCC56CCCN5CC(F)C6)nc4c3F)c12" target_entity="843782-103-R-J1-PDC complex spheroid viability" assigned_class=met
compound="Cc1nc(N2CCC3(CC2)COC(C)C3N)c(CO)nc1Sc1ccnc(N)c1Cl (stereo not given) + C#Cc1c(F)ccc2cc(O)cc(-c3ncc4c(N5CC6CCC(C5)N6)nc(OCC56CCCN5CC(F)C6)nc4c3F)c12" target_entity="843782-103-R-J1-PDC complex spheroid viability" assigned_class="not met"
compound="CC(C)n1nc(-c2ccc3oc(N)nc3c2)c2c(N)ncnc21 + C#Cc1c(F)ccc2cc(O)cc(-c3ncc4c(N5CC6CCC(C5)N6)nc(OCC56CCCN5CC(F)C6)nc4c3F)c12" target_entity="843782-103-R-J1-PDC complex spheroid viability" assigned_class=met
compound="C[C@@H](NC(=O)c1ncnc(N)c1Cl)c1ncc(C(=O)Nc2cc(C(F)(F)F)c(Cl)cn2)s1 + C=CC(=O)N1CCN(c2nc(OCC3CCCN3C)nc3c(F)c(-c4nc(N)cc(C)c4C(F)(F)F)c(Cl)cc23)C(C)C1" target_entity="843782-103-R-J1-PDC complex spheroid viability" assigned_class="not met"
compound="CC(C)n1nc(-c2ccc3oc(N)nc3c2)c2c(N)ncnc21 + C=CC(=O)N1CCN(c2nc(OCC3CCCN3C)nc3c(F)c(-c4nc(N)cc(C)c4C(F)(F)F)c(Cl)cc23)C(C)C1" target_entity="843782-103-R-J1-PDC complex spheroid viability" assigned_class=met

Now take the following compound into account.
Q. # TODO verify viability, T/C < 80% strictly for this compound: CCC(CC)c1cc(NC2CCC(N)C2)n2nccc2n1 (stereo not given) + C#Cc1c(F)ccc2cc(O)cc(-c3ncc4c(N5CC6CCC(C5)N6)nc(OCC56CCCN5CC(F)C6)nc4c3F)c12
A. not met

* * *

System: 843782-103-R-J1-PDC complex spheroid viability
PROCEDURE_TEXT: Anticancer human tumor 843782-103-R-J1-PDC cell line growth inhibition [RAS];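 also: viability read after seven days of compound exposure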
TEST_CONDITIONS: curve of compound
Each entry below lists one item and its recorded IC50 value.

Here are 3 compounds together with their reported answers.
compound=CCc1c2c(nc3ccc(O)cc13)-c1cc3c(c(=O)n1C2)COC(=O)[C@]3(O)CC measurement="1.88 nM [middle of 4 runs]"
compound="CC1(C)CCC(Nc2ncc(C(F)(F)F)c(-c3c[nH]c4c(P(C)(C)=O)c(C#N)ccc34)n2)CN1 (stereo unspecified)" measurement="13.6 nM [middle of 4 runs]"
compound="CCC(CC)c1cc(NC2CCC(N)C2)n2nccc2n1 (stereo unspecified)" measurement="1.78 µM [middle of 4 runs]"

Q. // fetch 843782-103-R-J1-PDC complex spheroid viability IC50 for C=CC(=O)N1CCN(c2nc(OCC3CCCN3C)nc3c(F)c(-c4nc(N)cc(C)c4C(F)(F)F)c(Cl)cc23)C(C)C1 (stereo unspecified)
A. > 1 µM

Q. // fetch 843782-103-R-J1-PDC complex spheroid viability IC50 for CC1(O)CCCC1n1c(=O)c(C(F)F)cc2cnc(NC3CCN(S(C)(=O)=O)CC3)nc21 (stereo unspecified)
A. 307 nM [middle of 4 runs]

Q. // fetch 843782-103-R-J1-PDC complex spheroid viability IC50 for CC(C)NCC(C(=O)N1CCN(c2ncnc3c2C(C)CC3O)CC1)c1ccc(Cl)cc1 (stereo unspecified)
A. 1.54 µM [middle of 4 runs]

Q. // fetch 843782-103-R-J1-PDC complex spheroid viability IC50 for Nc1ccn(C2OC(CO)C(O)C2(F)F)c(=O)n1 (stereo unspecified)
A. 34.1 nM [middle of 4 runs]

Q. // fetch 843782-103-R-J1-PDC complex spheroid viability IC50 for CC(=O)OC12COC1CC(O)C1(C)C(=O)C(O)C3=C(C)C(OC(=O)C(O)C(NC(=O)OC(C)(C)C)c4ccccc4)CC(O)(C(OC(=O)c4ccccc4)C21)C3(C)C (stereo unspecified)
A. < 0.0316 µM

Q. // fetch 843782-103-R-J1-PDC complex spheroid viability IC50 for `C[C@@H](NC(=O)c1ncnc(N)c1Cl)c1ncc(C(=O)Nc2cc(C(F)(F)F)c(Cl)cn2)s1`
A. > 10 µM

Q. // fetch 843782-103-R-J1-PDC complex spheroid viability IC50 for `C=CC(=O)Nc1cc(Nc2nccc(-c3cn(C)c4ccccc34)n2)c(OC)cc1N(C)CCN(C)C`
A. > 1 µM

Q. // fetch 843782-103-R-J1-PDC complex spheroid viability IC50 for `CC(C)n1nc(-c2ccc3oc(N)nc3c2)c2c(N)ncnc21`
A. 31.2 nM [middle of 4 runs]
